Attribution: PubChem BioAssay AID256

Could you please report measured T/C for the items listed next?
Tested on: CD2F1 mice, L1210 leukemia ip, survival T/C
PROTOCOL DETAILS: NCI In Vivo Anticancer Drug Screen. Data for tumor model L1210 Leukemia (intraperitoneal) in CD2F1 (CDF1) mice
PROTOCOL CONDITIONS: endpoint: mean survival time; dose: 100.0 mg/kg/injection; schedule: Q04DX003 (ip); vehicle: saline with Tween-80; higher = longer survival
Inconclusive results and toxic doses are left out.

*Q* Consider the molecule Cc1cc([N+](=O)[O-])cc(C)c1O and give its measured T/C.
*A* 100 % of control

*Q* Consider the molecule CCCCCCCCC(=O)c1ccc(N=Nc2ccc(OCC)cc2)cc1 and give its measured T/C.
*A* 94 % of control

*Q* Consider the molecule COC/C(=N/Nc1ccc([N+](=O)[O-])cc1[N+](=O)[O-])c1ccccc1 and give its measured T/C.
*A* 102 % of control

*Q* Consider the molecule O=C1c2ccccc2C(=O)N1CCCCCBr and give its measured T/C.
*A* 103 % of control

*Q* Consider the molecule COC(=O)C(CC(C)C)NC(=O)c1ccccc1 (configuration not stated) and give its measured T/C.
*A* 98 % of control

*Q* Consider the molecule CC(Br)C(=O)NC(C)C(=O)O (configuration not stated) and give its measured T/C.
*A* 92 % of control

*Q* Consider the molecule OC(CCCCl)CC(O)(C(F)(F)F)C(F)(F)F (configuration not stated) and give its measured T/C.
*A* 108 % of control
